- EXPERIMENT SUMMARY: Oral bioavailability in rat at 5 mg/kg
- Format: ADME, organism-based
- MEASUREMENT CONDITIONS: in vivo
EXPERIMENTAL READOUT: bioavailability (%)
Enter your answer as a number in %; do not include the unit.

# input // returns reported bioavailability for input `CC1(C)C=Cc2c(ccc3c2C(=O)C(O)=C(C2=C(C4=C(O)C(=O)c5c(ccc6c5C=CC(C)(C)O6)C4=O)C(=O)c4c(ccc5c4CCC(C)(C)O5)C2=O)C3=O)O1`
# output 2.6

====

- EXPERIMENT SUMMARY: Half life in rat at 2 mg/kg, iv
- MEASUREMENT CONDITIONS: in vivo
EXPERIMENTAL READOUT: half-life (h)
Enter your answer as a number in h; do not include the unit.

# input // returns reported half-life for input `CC1(C)C=Cc2c(ccc3c2C(=O)C(O)=C(C2=C(C4=C(O)C(=O)c5c(ccc6c5C=CC(C)(C)O6)C4=O)C(=O)c4c(ccc5c4CCC(C)(C)O5)C2=O)C3=O)O1`
# output 45

====

- EXPERIMENT SUMMARY: Cmax in rat at 2 mg/kg, iv
- MEASUREMENT CONDITIONS: in vivo
EXPERIMENTAL READOUT: Cmax (µg/mL)
Enter your answer as a number in µg/mL; do not include the unit.

# input // returns reported Cmax for input `CC1(C)C=Cc2c(ccc3c2C(=O)C(O)=C(C2=C(C4=C(O)C(=O)c5c(ccc6c5C=CC(C)(C)O6)C4=O)C(=O)c4c(ccc5c4CCC(C)(C)O5)C2=O)C3=O)O1`
# output 50.2

====

- TEST SYSTEM: UniProt:Q7ZJM1
- EXPERIMENT SUMMARY: Inhibition of HIV1 integrase 3' strand transfer activity
Measured pIC50 accompanies every entry in the list below.
Quick note: pIC50 values are minus log10 of concentrations in mol/L.

STRUCTURE SMILES | TEST SYSTEM | OBSERVED VALUE
CC1(C)C=Cc2c(ccc3c2C(=O)C(O)=C(C2=C(C4=C(O)C(=O)c5c(ccc6c5C=CC(C)(C)O6)C4=O)C(=O)c4c(ccc5c4CCC(C)(C)O5)C2=O)C3=O)O1 | UniProt:Q7ZJM1 | 5.22
CC1(C)C=Cc2c(ccc3c2C(=O)C(O)=C(C2=C(C4=C(O)C(=O)c5c(ccc6c5C=CC(C)(C)O6)C4=O)C(=O)c4c(ccc5c4C=CC(C)(C)O5)C2=O)C3=O)O1 | UniProt:Q7ZJM1 | 5.52

# input // returns reported pIC50 for input `CCCOc1ccc2c(c1)C(=O)C(C1=C(O)C(=O)c3c(ccc4c3C=CC(C)(C)O4)C1=O)=C(C1=C(O)C(=O)c3c(ccc4c3C=CC(C)(C)O4)C1=O)C2=O`
# output 5.30

# input // returns reported pIC50 for input `COc1cccc2c1C(=O)C(C1=C(C3=C(O)C(=O)c4cccc(OC)c4C3=O)C(=O)c3ccccc3C1=O)=C(O)C2=O`
# output 4.89

# input // returns reported pIC50 for input `CC1(C)C=Cc2c(ccc3c2C(=O)C(O)=C(C2=C(C4=C(O)C(=O)c5c(ccc6c5C=CC(C)(C)O6)C4=O)C(=O)c4ccccc4C2=O)C3=O)O1`
# output 5.70

# input // returns reported pIC50 for input `COc1ccc2c(c1)C(=O)C(C1=C(O)C(=O)c3c(ccc4c3C=CC(C)(C)O4)C1=O)=C(C1=C(O)C(=O)c3c(ccc4c3C=CC(C)(C)O4)C1=O)C2=O`
# output 5.60

====

- TEST SYSTEM: Human immunodeficiency virus type 1 integrase (Human immunodeficiency virus 1, UniProt Q7ZJM1)
- Sequence (Q7ZJM1 whole entry): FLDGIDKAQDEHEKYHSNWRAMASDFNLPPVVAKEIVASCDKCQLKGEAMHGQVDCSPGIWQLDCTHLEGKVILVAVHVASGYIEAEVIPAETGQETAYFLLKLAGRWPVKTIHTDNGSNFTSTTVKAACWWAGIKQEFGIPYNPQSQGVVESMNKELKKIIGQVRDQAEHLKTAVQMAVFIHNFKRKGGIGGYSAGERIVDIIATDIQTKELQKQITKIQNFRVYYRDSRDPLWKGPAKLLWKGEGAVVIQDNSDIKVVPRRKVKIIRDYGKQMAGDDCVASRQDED
- EXPERIMENT SUMMARY: Inhibition of HIV1 integrase 3' processing activity
Cut-off 4 µM on IC50: below means rule met, at or above means rule not met.

Some solved cases for reference:
STRUCTURE SMILES | DISCRETE LABEL
CC1(C)C=Cc2c(ccc3c2C(=O)C(O)=C(C2=C(C4=C(O)C(=O)c5c(ccc6c5C=CC(C)(C)O6)C4=O)C(=O)c4c(ccc5c4CCC(C)(C)O5)C2=O)C3=O)O1 | rule met
CC(C)Oc1ccc2c(c1)C(=O)C(C1=C(O)C(=O)c3c(ccc4c3C=CC(C)(C)O4)C1=O)=C(C1=C(O)C(=O)c3c(ccc4c3C=CC(C)(C)O4)C1=O)C2=O | rule met
CC1(C)C=Cc2c(ccc3c2C(=O)C(O)=C(C2=C(C4=C(O)C(=O)c5c(ccc6c5C=CC(C)(C)O6)C4=O)C(=O)N(Cc4ccccc4)C2=O)C3=O)O1 | rule not met
COc1cc2c(cc1OC)C(=O)C(C1=C(C3=C(O)C(=O)c4cc(OC)c(OC)cc4C3=O)C(=O)c3ccccc3C1=O)=C(O)C2=O | rule not met

# next molecule below
# input For `COc1ccc2c(c1)C(=O)C(O)=C(C1=C(C3=C(O)C(=O)c4cc(OC)ccc4C3=O)C(=O)c3ccccc3C1=O)C2=O` , is the recorded IC50 below the cut-off of 4 µM?
# output rule not met

====

- System: CCRF-CEM
- EXPERIMENT SUMMARY: Cytotoxicity against human CEM cells
- Type: functional
Measured CC50 accompanies every entry in the list below.
Enter your answer as a number in µM; do not include the unit.

Study these solved cases before continuing.
STRUCTURE SMILES | OBSERVED VALUE
COc1ccc2c(c1)C(=O)C(C1=C(O)C(=O)c3c(ccc4c3C=CC(C)(C)O4)C1=O)=C(C1=C(O)C(=O)c3c(ccc4c3C=CC(C)(C)O4)C1=O)C2=O | 10
CCCOc1ccc2c(c1)C(=O)C(C1=C(O)C(=O)c3c(ccc4c3C=CC(C)(C)O4)C1=O)=C(C1=C(O)C(=O)c3c(ccc4c3C=CC(C)(C)O4)C1=O)C2=O | 1

Read the next record carefully.
# input // returns reported CC50 for input `O=C1C(O)=C(C2=C(C3=C(O)C(=O)c4ccccc4C3=O)C(=O)c3ccccc3C2=O)C(=O)c2ccccc21`
# output 48

====

- EXPERIMENT SUMMARY: Cmax in rat at 5 mg/kg, po
- Assay type: ADME, organism-based
- Parameters: dose 5 mg/kg, route oral
- MEASUREMENT CONDITIONS: in vivo
EXPERIMENTAL READOUT: Cmax (ng/mL)
Enter your answer as a number in ng/mL; do not include the unit.

# input // returns reported Cmax for input `CC1(C)C=Cc2c(ccc3c2C(=O)C(O)=C(C2=C(C4=C(O)C(=O)c5c(ccc6c5C=CC(C)(C)O6)C4=O)C(=O)c4c(ccc5c4CCC(C)(C)O5)C2=O)C3=O)O1`
# output 3200

====

- EXPERIMENT SUMMARY: Half life in rat at 5 mg/kg, po
- Format: ADME, organism-based
- Set-up: dose 5 mg/kg, route oral
- MEASUREMENT CONDITIONS: in vivo
EXPERIMENTAL READOUT: half-life (h)
Enter your answer as a number in h; do not include the unit.

# input // returns reported half-life for input `CC1(C)C=Cc2c(ccc3c2C(=O)C(O)=C(C2=C(C4=C(O)C(=O)c5c(ccc6c5C=CC(C)(C)O6)C4=O)C(=O)c4c(ccc5c4CCC(C)(C)O5)C2=O)C3=O)O1`
# output 21.7

====

- TEST SYSTEM: Human immunodeficiency virus type 1 integrase (Human immunodeficiency virus 1)
- EXPERIMENT SUMMARY: Inhibition of HIV1 integrase 3' strand transfer activity
EXPERIMENTAL READOUT: pIC50
Quick note: pIC50 values are minus log10 of concentrations in mol/L.

Study these solved cases before continuing.
STRUCTURE SMILES | TEST SYSTEM | pIC50
CC1(C)CCc2c(ccc3c2C(=O)C(O)=C(C2=C(C4=C(O)C(=O)c5c(ccc6c5CCC(C)(C)O6)C4=O)C(=O)c4c(ccc5c4CCC(C)(C)O5)C2=O)C3=O)O1 | Human immunodeficiency virus type 1 integrase (Human immunodeficiency virus 1) | 5.05
CC1(C)C=Cc2c(ccc3c2C(=O)C(O)=C(C2=C(C4=C(O)C(=O)c5c(ccc6c5C=CC(C)(C)O6)C4=O)C(=O)N(Cc4ccccc4)C2=O)C3=O)O1 | Human immunodeficiency virus type 1 integrase (Human immunodeficiency virus 1) | 5.40
COc1cc2c(cc1OC)C(=O)C(C1=C(C3=C(O)C(=O)c4cc(OC)c(OC)cc4C3=O)C(=O)c3ccccc3C1=O)=C(O)C2=O | Human immunodeficiency virus type 1 integrase (Human immunodeficiency virus 1) | 4.92
O=C1C(O)=C(C2=C(C3=C(O)C(=O)c4ccccc4C3=O)C(=O)c3ccccc3C2=O)C(=O)c2ccccc21 | Human immunodeficiency virus type 1 integrase (Human immunodeficiency virus 1) | 4.89
COc1ccc2c(c1)C(=O)C(O)=C(C1=C(C3=C(O)C(=O)c4cc(OC)ccc4C3=O)C(=O)c3ccccc3C1=O)C2=O | Human immunodeficiency virus type 1 integrase (Human immunodeficiency virus 1) | 5.00

# input // returns reported pIC50 for input `COc1cc2c(cc1OC)C(=O)C(C1=C(C3=C(O)C(=O)c4cc(OC)c(OC)cc4C3=O)C(=O)c3cc(OC)c(OC)cc3C1=O)=C(O)C2=O`
# output 5.00
